Taken from patent US9751887B2.

SYSTEM_NAME: ROS1 (Homo sapiens, UniProt P08922)
Construct: purchased Carna Biosciences 08-163
Sequence (P08922 28-2347): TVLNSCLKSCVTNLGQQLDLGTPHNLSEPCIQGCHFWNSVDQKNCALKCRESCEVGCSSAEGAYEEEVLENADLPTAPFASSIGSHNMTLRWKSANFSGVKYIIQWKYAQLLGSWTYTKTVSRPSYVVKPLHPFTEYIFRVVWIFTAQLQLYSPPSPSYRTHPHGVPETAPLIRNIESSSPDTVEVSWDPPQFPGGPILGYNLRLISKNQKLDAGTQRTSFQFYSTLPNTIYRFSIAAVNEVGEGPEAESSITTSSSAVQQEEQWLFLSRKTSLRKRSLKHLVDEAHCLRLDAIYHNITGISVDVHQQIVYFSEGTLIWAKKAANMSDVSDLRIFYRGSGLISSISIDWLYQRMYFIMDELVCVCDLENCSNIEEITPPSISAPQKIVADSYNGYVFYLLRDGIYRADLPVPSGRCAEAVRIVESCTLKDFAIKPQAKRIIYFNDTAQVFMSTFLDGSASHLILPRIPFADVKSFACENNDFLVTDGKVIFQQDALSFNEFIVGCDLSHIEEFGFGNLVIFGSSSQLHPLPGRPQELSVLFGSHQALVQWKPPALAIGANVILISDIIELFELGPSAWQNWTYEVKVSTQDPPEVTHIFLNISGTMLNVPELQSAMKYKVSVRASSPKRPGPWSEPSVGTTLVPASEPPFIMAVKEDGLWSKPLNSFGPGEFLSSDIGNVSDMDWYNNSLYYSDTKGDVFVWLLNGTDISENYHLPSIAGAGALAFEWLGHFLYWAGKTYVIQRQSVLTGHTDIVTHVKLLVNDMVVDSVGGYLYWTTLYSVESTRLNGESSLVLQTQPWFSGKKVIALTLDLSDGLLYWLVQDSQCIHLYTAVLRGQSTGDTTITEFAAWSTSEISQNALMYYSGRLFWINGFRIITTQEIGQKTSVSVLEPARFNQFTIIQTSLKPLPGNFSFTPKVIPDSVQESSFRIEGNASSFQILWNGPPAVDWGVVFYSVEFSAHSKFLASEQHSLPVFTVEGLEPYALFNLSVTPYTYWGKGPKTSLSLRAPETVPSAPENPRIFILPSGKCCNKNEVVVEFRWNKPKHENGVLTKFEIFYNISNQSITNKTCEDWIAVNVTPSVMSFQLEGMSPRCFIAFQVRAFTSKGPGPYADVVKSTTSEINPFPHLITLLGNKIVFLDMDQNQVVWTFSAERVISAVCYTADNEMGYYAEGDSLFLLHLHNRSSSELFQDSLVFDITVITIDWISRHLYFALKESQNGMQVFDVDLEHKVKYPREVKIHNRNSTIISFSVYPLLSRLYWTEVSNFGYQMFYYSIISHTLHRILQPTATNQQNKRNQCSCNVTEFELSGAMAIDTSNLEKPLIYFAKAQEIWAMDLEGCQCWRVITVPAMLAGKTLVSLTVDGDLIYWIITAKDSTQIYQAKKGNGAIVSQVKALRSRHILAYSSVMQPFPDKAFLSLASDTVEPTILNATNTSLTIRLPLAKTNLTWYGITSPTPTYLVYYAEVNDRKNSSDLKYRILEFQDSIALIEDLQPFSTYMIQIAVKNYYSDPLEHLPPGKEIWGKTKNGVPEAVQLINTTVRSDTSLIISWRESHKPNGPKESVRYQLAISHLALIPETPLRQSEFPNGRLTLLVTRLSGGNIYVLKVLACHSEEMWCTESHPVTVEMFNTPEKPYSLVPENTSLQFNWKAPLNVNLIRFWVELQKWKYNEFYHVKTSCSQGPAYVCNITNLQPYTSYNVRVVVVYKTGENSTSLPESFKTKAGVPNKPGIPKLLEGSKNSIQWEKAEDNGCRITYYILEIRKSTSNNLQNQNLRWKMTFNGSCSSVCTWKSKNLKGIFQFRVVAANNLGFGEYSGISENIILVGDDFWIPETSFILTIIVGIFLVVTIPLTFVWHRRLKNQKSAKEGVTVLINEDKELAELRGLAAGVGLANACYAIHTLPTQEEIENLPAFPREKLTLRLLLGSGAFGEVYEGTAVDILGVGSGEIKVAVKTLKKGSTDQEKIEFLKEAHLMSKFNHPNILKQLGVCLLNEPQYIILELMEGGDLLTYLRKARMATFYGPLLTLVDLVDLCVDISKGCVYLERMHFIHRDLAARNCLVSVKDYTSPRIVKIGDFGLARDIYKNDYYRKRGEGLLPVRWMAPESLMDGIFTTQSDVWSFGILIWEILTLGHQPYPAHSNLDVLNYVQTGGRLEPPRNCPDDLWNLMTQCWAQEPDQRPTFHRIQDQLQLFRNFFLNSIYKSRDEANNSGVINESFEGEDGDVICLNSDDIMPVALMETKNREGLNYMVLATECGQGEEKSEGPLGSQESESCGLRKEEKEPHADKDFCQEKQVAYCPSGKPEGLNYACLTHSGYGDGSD
EXPERIMENT_SUMMARY: ROS1 autophosphorylation inhibitory activity evaluation (ADP-Glo)
Type: biochemical
RUN_CONDITIONS: 200 nM inactive ROS1, ATP 1 mM, 25° C. 1.5 hours, ADP generated, four separate measurements
pIC50: −log10 of the molar value.
PARAMETER_MEASURED: pIC50

As a guide, the following entries are already answered.
In: Specify the recorded pIC50 for NC1CC(=O)N(c2ccc(-c3cnc4ccc(OCc5cccc(F)c5)nn34)cc2)C1 (stereo not shown) , system: ROS1 (Homo sapiens, UniProt P08922).
Out: > 7.70

In: Specify the recorded pIC50 for `C[C@@H](Nc1ccc2ncc(-c3ccc(OC[C@@H]4CCCN4)cc3)n2n1)c1cccc(F)c1` , system: ROS1 (Homo sapiens, UniProt P08922).
Out: > 7.70

In: Specify the recorded pIC50 for CN(Cc1cncc(F)c1)c1ccc2ncc(-c3ccc(N4CC(C)(N)CC4=O)cc3)n2n1 (single isomer, unassigned) [Example 125] , system: ROS1 (Homo sapiens, UniProt P08922).
Out: 7.00 to 7.70

In: Specify the recorded pIC50 for `CN(Cc1cccc(F)c1)c1ccc2ncc(-c3ccc(N4C[C@@H](N)CC4=O)c(F)c3)n2n1` , system: ROS1 (Homo sapiens, UniProt P08922).
Out: 7.00 to 7.70

In: Specify the recorded pIC50 for `CC[C@H](N)COc1ccc(-c2cnc3ccc(N[C@H](C)c4cccc(F)c4)nn23)cc1` , system: ROS1 (Homo sapiens, UniProt P08922).
Out: > 7.70

New cases:
In: Specify the recorded pIC50 for C[C@@H](Nc1ccc2ncc(-c3ccc(OC4CCCC4N)cc3)n2n1)c1cccc(F)c1 (single isomer, unassigned) , system: ROS1 (Homo sapiens, UniProt P08922).
Out: > 7.70

In: Specify the recorded pIC50 for `CNCCCOc1cccc(-c2cnc3ccc(N[C@H](C)c4cccc(F)c4)nn23)c1` , system: ROS1 (Homo sapiens, UniProt P08922).
Out: > 7.70

In: Specify the recorded pIC50 for `CN(Cc1cncc(F)c1)c1ccc2ncc(-c3ccc(N4C[C@@H](N)CC4=O)c(C#N)c3)n2n1` , system: ROS1 (Homo sapiens, UniProt P08922).
Out: 7.00 to 7.70

In: Specify the recorded pIC50 for `C[C@@H](Nc1ccc2ncc(-c3ccc(OCCCN)cc3)n2n1)c1cccc(F)c1` , system: ROS1 (Homo sapiens, UniProt P08922).
Out: > 7.70

In: Specify the recorded pIC50 for `C[C@@H](Oc1ccc2ncc(-c3ccc(N4C[C@H](N)CC4=O)cc3)n2n1)c1cccc(F)c1` , system: ROS1 (Homo sapiens, UniProt P08922).
Out: > 7.70

In: Specify the recorded pIC50 for `C[C@@H](Nc1ccc2ncc(-c3ccc(F)c(OC[C@@H]4CCN4)c3)n2n1)c1cccc(F)c1` , system: ROS1 (Homo sapiens, UniProt P08922).
Out: 6.82 to 7.00

In: Specify the recorded pIC50 for `C[C@@H](N)COc1ccc(-c2cnc3ccc(N[C@H](C)c4cccc(F)c4)nn23)cn1` , system: ROS1 (Homo sapiens, UniProt P08922).
Out: > 7.70

In: Specify the recorded pIC50 for CN(Cc1cncc(F)c1)c1ccc2ncc(-c3ccc(N4CC(C)(N)CC4=O)cc3)n2n1 (single isomer, unassigned) [Example 124] , system: ROS1 (Homo sapiens, UniProt P08922).
Out: > 7.70
